// data source = patent US20120252741A1

# Test system: Staphylococcus aureus 757 (MRSA)
# method summary: MIC, broth microdilution, SA 757
# Assay type: cell-based
# assay conditions: Table 1, class symbols, read-out: MIC SA 757
Listing of recorded MIC by entry.
endpoint label: MIC

compound	endpoint label	reported measurement
CCCCCCCCCC(=O)NC(=O)C[C@@H]1NC(=O)[C@H](NC(=O)[C@@H](CC(C)C)NC)[C@H](O)c2ccc(c(Cl)c2)Oc2cc3cc(c2O[C@@H]2O[C@H](CO)[C@@H](O)[C@H](O)[C@H]2O[C@H]2C[C@](C)(N)[C@H](O)[C@H](C)O2)Oc2ccc(cc2Cl)[C@@H](O)[C@@H]2NC(=O)[C@H](NC(=O)[C@@H]3NC1=O)c1ccc(O)c(c1)-c1c(O)cc(O)cc1[C@@H](C(=O)NC1C3CC4CC(C3)CC1C4)NC2=O (some centres unmarked)	MIC	0.5 to 1 µg/mL
CCCCCCOc1ccc(S(=O)(=O)NC(=O)C[C@@H]2NC(=O)[C@H](NC(=O)[C@@H](CC(C)C)NC)[C@H](O)c3ccc(c(Cl)c3)Oc3cc4cc(c3O[C@@H]3O[C@H](CO)[C@@H](O)[C@H](O)[C@H]3O)Oc3ccc(cc3Cl)[C@@H](O)[C@@H]3NC(=O)[C@H](NC(=O)[C@@H]4NC2=O)c2ccc(O)c(c2)-c2c(O)cc(O)cc2[C@@H](C(=O)NC2C4CC5CC(C4)CC2C5)NC3=O)cc1 (some centres unmarked)	MIC	1 to 2 µg/mL
CCCCOc1ccc(S(=O)(=O)NC(=O)C[C@@H]2NC(=O)[C@H](NC(=O)[C@@H](CC(C)C)NC)[C@H](O)c3ccc(c(Cl)c3)Oc3cc4cc(c3O[C@@H]3O[C@H](CN)[C@@H](O)[C@H](O)[C@H]3O)Oc3ccc(cc3Cl)[C@@H](O)[C@@H]3NC(=O)[C@H](NC(=O)[C@@H]4NC2=O)c2ccc(O)c(c2)-c2c(O)cc(O)cc2[C@@H](C(=O)NC2C4CC5CC(C4)CC2C5)NC3=O)cc1 (some centres unmarked)	MIC	0.01 to 0.5 µg/mL
CCOCCOCCOc1ccc(S(=O)(=O)NC(=O)C[C@@H]2NC(=O)[C@H](NC(=O)[C@@H](CC(C)C)NC)[C@H](O)c3ccc(c(Cl)c3)Oc3cc4cc(c3O[C@@H]3O[C@H](CN)[C@@H](O)[C@H](O)[C@H]3O)Oc3ccc(cc3Cl)[C@@H](O)[C@@H]3NC(=O)[C@H](NC(=O)[C@@H]4NC2=O)c2ccc(O)c(c2)-c2c(O)cc(O)cc2[C@@H](C(=O)NC2C4CC5CC(C4)CC2C5)NC3=O)cc1 (some centres unmarked)	MIC	0.01 to 0.5 µg/mL
CCCCOCC(=O)NC(=O)C[C@@H]1NC(=O)[C@H](NC(=O)[C@@H](CC(C)C)NC)[C@H](O)c2ccc(c(Cl)c2)Oc2cc3cc(c2O[C@@H]2O[C@H](CO)[C@@H](O)[C@H](O)[C@H]2O[C@H]2C[C@](C)(N)[C@H](O)[C@H](C)O2)Oc2ccc(cc2Cl)[C@@H](O)[C@@H]2NC(=O)[C@H](NC(=O)[C@@H]3NC1=O)c1ccc(O)c(c1)-c1c(O)cc(O)cc1[C@@H](C(=O)NC1C3CC4CC(C3)CC1C4)NC2=O (some centres unmarked)	MIC	0.5 to 1 µg/mL
